Recorded folding stability dG values for a group of variants are listed next.
B1: 6NMW (parent)
chain: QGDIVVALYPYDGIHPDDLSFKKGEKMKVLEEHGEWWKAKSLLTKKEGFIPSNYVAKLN

Variants of: B1
Experiment: folding stability dG (cDNA display proteolysis); higher = more stable
Settings: PBS, room temperature

MUTATION_STRING: F49N
folding stability dG: 3.4 kcal/mol

MUTATION_STRING: L30A
folding stability dG: 1.01 kcal/mol

MUTATION_STRING: I4F
folding stability dG: 2.76 kcal/mol

MUTATION_STRING: K26N
folding stability dG: 2.15 kcal/mol

MUTATION_STRING: G13W
folding stability dG: 0.736 kcal/mol

MUTATION_STRING: K26S
folding stability dG: 2.3 kcal/mol

MUTATION_STRING: K22P
folding stability dG: 0.747 kcal/mol

MUTATION_STRING: K28M
folding stability dG: 4.6 kcal/mol

MUTATION_STRING: K57P
folding stability dG: 3.63 kcal/mol

MUTATION_STRING: K28G
folding stability dG: 1.31 kcal/mol

MUTATION_STRING: F21W
folding stability dG: -0.416 kcal/mol

MUTATION_STRING: S41V
folding stability dG: 1.06 kcal/mol

MUTATION_STRING: K45M
folding stability dG: 4.29 kcal/mol

MUTATION_STRING: K46M
folding stability dG: 3.47 kcal/mol

MUTATION_STRING: N53Y
folding stability dG: 3.12 kcal/mol

MUTATION_STRING: G13T
folding stability dG: 1.74 kcal/mol

MUTATION_STRING: D12V
folding stability dG: 4.41 kcal/mol

MUTATION_STRING: E47F
folding stability dG: 2.36 kcal/mol

MUTATION_STRING: D18Q
folding stability dG: 4.95 kcal/mol

MUTATION_STRING: V55A
folding stability dG: 1.47 kcal/mol

MUTATION_STRING: K38A
folding stability dG: 1.72 kcal/mol

MUTATION_STRING: K45W
folding stability dG: 4.01 kcal/mol
